Assay: 384-well plate pilot, post-Golgi transport modulator project, inhibition of yeast transport mutant growth (AID 636); note: test concentration not given here
Details: absorbance 615 nm, about 18 h, stronger effect = higher value
Task for the reader: assign each of the following compounds its reported inhibition.
One number for each entry, in %.

Dear colleague, could you send me inhibition for each of the items below? Thanks.
1. CCOC(=O)C1CCCN(C(=O)c2cc3c(-c4cccc(OC)c4)nn(C)c3s2)C1 (centres undefined)
2. CCc1nnc(-n2nc(C)cc2-c2ccccc2)n1N
3. COc1ccc(C2C(C(=O)c3sc(C)nc3C)=C(O)C(=O)N2CCN(C)C)cc1 (centres undefined)
4. CCCCCCn1c(CN2CCCC(C)C2)nc2c1c(=O)n(C)c(=O)n2C (centres undefined)
5. O=C(Cn1c(=O)[nH]c2ccsc2c1=O)N1CCN(c2ccc(F)cc2)CC1
6. CCOC(=O)Nc1cc(OC)c(OC)cc1Cc1nccc2cc(OC)c(OC)cc12
7. CCOC(=O)c1cccc(NC(=O)CSc2nc3cccnc3n2C)c1

Out:
1. -8.13
2. -2.47
3. -8
4. -7.12
5. -1.84
6. -2.05
7. -5.14

Dear colleague, could you send me inhibition for each of the items below? Thanks.
1. Cc1nc2c(c(=O)n1CC1CCCO1)c1nc3ccccc3nc1n2CC(C)C (centres undefined)
2. O=S1(=O)CCN2C(=N1)SC1=C2CCN(Cc2ccccc2)C1
3. CCSc1nc2c(c(=O)n(C)c(=O)n2C)n1Cc1ccc(Cl)cc1

Out:
2.63
-9.04
-0.92

Dear colleague, could you send me inhibition for each of the items below? Thanks.
1. CCCCCCC(c1c(C)n(C)n(-c2ccccc2)c1=O)c1c(C)n(C)n(-c2ccccc2)c1=O
2. COc1ccc(CCn2c(N)c(C#N)c3nc4ccccc4nc32)cc1OC
3. Cc1nnc(SC(=O)N2c3ccccc3Sc3ccccc32)s1

Out:
-3.47
-1.45
54

In: Assign inhibition to the following record: Clc1ccc2c(c1)[C@H]1OCC[C@H]1[C@@H](c1ccco1)N2
Out: -0.13
